Exercise: for every item that follows, state its recorded inhibition.
molecular target: UniProtKB P0DUB6; assay: Inhibition of alpha-amylase (unknown origin) assessed as reduction in conversion of starch to glucose at 0.87 mM incubated for 1 hr relative to control
Sequence (P0DUB6 whole entry, looked up): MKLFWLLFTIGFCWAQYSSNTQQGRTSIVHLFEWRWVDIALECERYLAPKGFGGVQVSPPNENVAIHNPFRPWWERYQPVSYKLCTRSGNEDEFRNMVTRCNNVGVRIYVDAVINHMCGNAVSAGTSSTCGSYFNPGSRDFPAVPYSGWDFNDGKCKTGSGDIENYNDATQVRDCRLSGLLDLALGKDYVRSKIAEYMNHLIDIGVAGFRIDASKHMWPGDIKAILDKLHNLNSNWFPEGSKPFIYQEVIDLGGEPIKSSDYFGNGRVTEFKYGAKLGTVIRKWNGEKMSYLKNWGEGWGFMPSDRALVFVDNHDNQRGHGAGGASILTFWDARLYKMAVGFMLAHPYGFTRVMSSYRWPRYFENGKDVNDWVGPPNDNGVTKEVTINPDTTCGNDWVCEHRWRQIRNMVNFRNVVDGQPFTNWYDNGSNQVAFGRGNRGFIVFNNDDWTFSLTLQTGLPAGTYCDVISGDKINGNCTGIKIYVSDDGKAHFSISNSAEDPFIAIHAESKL
API: value field is a number in %; no unit string.

Item COC(C)(C)/C=C/C[C@@H](C)[C@H]1CC[C@@]2(C)[C@@H]3C=C[C@@]45OC[C@]3(CC[C@]12C)[C@@H]4CC[C@H](O[C@@H]1O[C@H](CO)[C@@H](O)[C@@H](O)[C@H]1O)C5(C)C : provide inhibition
70.5

Item C[C@H](C/C=C/C(C)(C)O)[C@H]1CC[C@@]2(C)[C@@H]3C=C[C@@]45OC[C@]3(CC[C@]12C)[C@@H]4CC[C@H](O[C@@H]1O[C@H](CO)[C@@H](O)[C@@H](O)[C@H]1O)C5(C)C [MOMORDICOSIDE F2] : provide inhibition
63.7

Item O=C(O)c1cc(O[C@@H]2OC[C@@H](O)[C@H](O)[C@H]2O)ccc1O : provide inhibition
60.7

Item C[C@H](C/C=C/C(C)(C)O)[C@H]1CC[C@@]2(C)[C@@H]3C=C[C@@]45OC[C@]3(CC[C@]12C)[C@@H]4CC[C@H](O[C@@H]1O[C@H](CO)[C@@H](O)[C@H](O)[C@H]1O)C5(C)C [MOMORDICOSIDE I] : provide inhibition
64.2

Item C[C@H](CC(O)C(O)C(C)(C)O)[C@H]1CC[C@@]2(C)[C@@H]3C=C[C@@]45OC[C@]3(CC[C@]12C)[C@@H]4CC[C@H](O[C@@H]1O[C@H](CO)[C@@H](O)[C@@H](O)[C@H]1O)C5(C)C (some centres not stated) : provide inhibition
66.4

Item COC(C)(C)/C=C/C[C@@H](C)[C@H]1CC[C@@]2(C)[C@@H]3[C@@H](O[C@@H]4O[C@H](CO)[C@@H](O)[C@H](O)[C@H]4O)C=C4[C@@H](CC[C@H](O)C4(C)C)[C@]3(C=O)CC[C@]12C : provide inhibition
69

Item COC(C)(C)/C=C/C[C@@H](C)[C@H]1CC[C@@]2(C)[C@@H]3C=C[C@@]45OC[C@]3(CC[C@]12C)[C@@H]4CC[C@H](O[C@@H]1O[C@H](CO)[C@@H](O)[C@H](O)[C@H]1O)C5(C)C [MOMORDICOSIDE F1] : provide inhibition
63.5
